Tested on: RXF 393 renal
Assay: NCI tumour cell line growth inhibition, 48 h
Endpoint Name: TGI (µM)
Unit µM implied. Number only.

For orientation, consider the following solved cases.
Look up TGI: NC(=O)CCSC(CC(=O)c1ccc(Cl)cc1)c1ccc(Cl)cc1 (stereo not drawn)
32.6

Queued: NC(N)=Nc1ccc(/C=C2\C=Cc3ccccc32)cc1
5.52

Item: O=C(CSSCC(=O)OCCS(=O)(=O)Nc1ccc(Br)cc1)OCCS(=O)(=O)Nc1ccc(Br)cc1
16.8

---
So what's the measured TGI for this one? CCCCCCCCCCOC(=O)NCCC
39.9

====

Test system: SF-268 CNS
Assay: NCI tumour cell line growth inhibition, 48 h
We begin with a simple list: items and their reported TGI.
Unit µM implied. Number only.

Which measured TGI value corresponds to CC[PH+](CC)CC.CC[PH+](CC)CC.[Au] ?
30.1

Consider the record given below.
I would be grateful if you could share the reported TGI for CC/C=C\C[C@H](O)C/C=C1/C(=O)C=C[C@@H]1C/C=C\CCCCO .
23.9

====

Test system: SK-MEL-2 melanoma
Assay: NCI tumour cell line growth inhibition, 48 h
Endpoint Name: TGI (µM)
Reply numerically in µM, unit not repeated.

// query TGI value for entry O=c1oc2ccc(Br)cc2c(=O)n1-c1ccc(Cl)cc1F
4.5

Others:
Which TGI value belongs to CC(C)C(Sc1nc(-c2ccccc2)c(-c2ccccc2)[nH]1)c1n[nH]c(=S)n1-c1ccccc1 (stereo not drawn) ?
43

====

Tested on: OVCAR-5 ovarian
Assay: NCI tumour cell line growth inhibition, 48 h; in the data active = GI50 below about 0.43 µM; inactive = the rest
Write down the outcome that applies. Available outcomes: Yes (active), No (inactive)

These recorded examples may help you get a feel for the data.
Recorded test call requested for O=c1oc2ccc(Br)cc2c(=O)n1-c1ccc(Cl)cc1F
No

Entry C=CC(=O)Nc1cccc(Oc2nc(Nc3ccc(N4CCN(C)CC4)cc3OC)ncc2Cl)c1 please
No

Same question, O=C1c2c(Cl)c(Cl)c(Cl)c(Cl)c2C(=O)C2(Cl)CC=CCC12Cl (centres undefined) this time
No

Would you mind doing CN(C)CCS(=O)(=O)Nc1cc(-c2ccc3ncc(C#N)c(Nc4ccc(F)c(Cl)c4)c3c2)cnc1Cl as well?
Yes

Same read-out for C=CCOC(=O)Nc1cccn([C@H](CC(C)C)C(=O)NCCC(C)C)c1=O ?
No

Continuing:
Name the outcome recorded for CN(C)CCOc1ccccc1NC1=C(Cl)C(=O)C(Nc2ccccc2OCCN(C)C)=C(Cl)C1=O in the assay.
No

Do the same for Cc1sc2c(c1C)C(c1ccc(Cl)cc1)=N[C@@H](CC(=O)NCCCN1CCN(C)CC1)c1nnc(C)n1-2 please
No

Ok, now O=C([CH-]C(=O)c1ccccc1)c1ccccc1.O=C([CH-]C(=O)c1ccccc1)c1ccccc1.O=C([CH-]C(=O)c1ccccc1)c1ccccc1.[Cl-].[Hf+4]
No

Request: COc1cc(/C=C/C(=O)c2c(-c3ccc(F)cc3)nc3sc(C)nn23)cc(OC)c1OC
No

====

System: LOX IMVI melanoma
Test: NCI tumour cell line growth inhibition, 48 h
List of GI50 values.

Worked examples, 5 compounds total:
Quick check: GI50 of CCCN(CCC)c1ccc(C=O)c(C)c1 ?
65 µM

Quick one: Cc1ccccc1C(C(=O)NC1CCCCC1)N(C(=O)CNc1ncccc1F)c1cccc(F)c1 (configuration not stated)
> 100 µM

Could you do the same for N#Cc1c(N/N=C\c2ccc(Cl)cc2)nc(N)nc1N1CCOCC1 , please?
21.6 µM

Input COc1ccc2nc3cccc([N+](=O)[O-])c3c(NC(C)CN(C)C)c2c1 (configuration not stated)
1.91 µM

Subsequent entry: COc1ccc(-c2cn(-c3cc(OC)c(OC)c(OC)c3)c(=O)[nH]2)cc1OC
> 100 µM

More entries:
Fill in: GI50 of N#CC1=C(N)Oc2c(sc3c(Br)cccc23)C1c1ccc(Cl)cc1 (configuration not stated) is ___
0.579 µM

And then Nc1nn(C(=O)Nc2c(F)cccc2F)c2ccccc12 , what is it?
49.3 µM
